target: PRC2-EZH1 (WT EZH1) (Homo sapiens, UniProt Q92800)
Sequence (Q92800 whole entry, one chain of several): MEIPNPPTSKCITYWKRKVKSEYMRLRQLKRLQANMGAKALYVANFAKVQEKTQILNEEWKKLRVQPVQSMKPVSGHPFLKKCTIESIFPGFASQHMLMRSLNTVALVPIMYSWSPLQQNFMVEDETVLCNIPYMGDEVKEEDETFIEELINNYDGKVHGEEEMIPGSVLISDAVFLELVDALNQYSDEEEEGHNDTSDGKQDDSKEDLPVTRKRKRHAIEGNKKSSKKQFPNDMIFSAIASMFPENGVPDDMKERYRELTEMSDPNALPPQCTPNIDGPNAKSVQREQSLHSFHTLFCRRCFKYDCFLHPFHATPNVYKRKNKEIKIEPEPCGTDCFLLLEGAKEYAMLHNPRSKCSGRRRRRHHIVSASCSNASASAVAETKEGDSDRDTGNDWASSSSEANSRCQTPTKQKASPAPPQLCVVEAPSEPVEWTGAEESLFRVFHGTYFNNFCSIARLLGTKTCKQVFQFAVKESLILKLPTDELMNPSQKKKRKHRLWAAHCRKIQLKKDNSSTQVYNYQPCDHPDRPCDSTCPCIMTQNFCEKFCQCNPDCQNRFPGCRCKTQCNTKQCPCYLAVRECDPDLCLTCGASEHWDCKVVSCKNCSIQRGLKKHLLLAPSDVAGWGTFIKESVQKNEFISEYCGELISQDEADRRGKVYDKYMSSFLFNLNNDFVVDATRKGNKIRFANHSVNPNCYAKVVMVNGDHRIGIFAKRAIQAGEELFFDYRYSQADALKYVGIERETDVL
Sequence (Q09028 whole entry partner, one chain of several): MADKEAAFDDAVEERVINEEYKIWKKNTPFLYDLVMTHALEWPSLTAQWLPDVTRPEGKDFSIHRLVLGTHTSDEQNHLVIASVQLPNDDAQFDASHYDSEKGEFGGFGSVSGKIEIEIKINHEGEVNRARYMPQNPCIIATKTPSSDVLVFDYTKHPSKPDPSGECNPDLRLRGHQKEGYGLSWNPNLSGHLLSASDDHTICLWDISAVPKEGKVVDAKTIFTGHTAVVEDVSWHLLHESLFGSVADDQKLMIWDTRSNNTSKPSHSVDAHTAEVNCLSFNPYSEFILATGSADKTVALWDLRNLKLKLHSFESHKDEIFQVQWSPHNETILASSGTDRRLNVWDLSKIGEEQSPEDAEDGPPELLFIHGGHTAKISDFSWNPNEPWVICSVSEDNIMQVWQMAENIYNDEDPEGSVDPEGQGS
Sequence (Q6ZN18 whole entry partner, one chain of several): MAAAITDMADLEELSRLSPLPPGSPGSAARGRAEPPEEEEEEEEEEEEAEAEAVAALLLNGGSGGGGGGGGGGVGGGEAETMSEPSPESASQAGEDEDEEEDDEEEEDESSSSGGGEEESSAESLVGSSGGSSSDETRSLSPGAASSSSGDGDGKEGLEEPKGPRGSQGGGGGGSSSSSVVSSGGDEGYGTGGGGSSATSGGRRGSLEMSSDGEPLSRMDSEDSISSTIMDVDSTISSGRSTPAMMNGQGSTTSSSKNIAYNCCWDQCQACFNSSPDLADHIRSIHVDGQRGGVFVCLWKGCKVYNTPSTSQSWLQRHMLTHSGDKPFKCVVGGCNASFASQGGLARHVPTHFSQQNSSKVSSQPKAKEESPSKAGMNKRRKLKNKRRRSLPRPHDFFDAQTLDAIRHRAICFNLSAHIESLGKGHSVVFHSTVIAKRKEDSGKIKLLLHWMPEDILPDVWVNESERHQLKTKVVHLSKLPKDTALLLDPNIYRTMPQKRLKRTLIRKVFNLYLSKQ
property.measured: IC50 (nM)

[I] Cc1cc(C)c(CNC(=O)c2cc(C3=CCCCC3)c3c(c2C)OC(C)([C@H]2CC[C@H](N(C)C)CC2)O3)c(=O)[nH]1 (relative stereo) [Example 60]
[II] COc1cc(C)[nH]c(=O)c1CNC(=O)c1cc(Cl)c2c(c1C)OC(C)([C@H]1CC[C@H](N(C)C)CC1)O2 (relative stereo) [Example 36]
[III] Cc1cc(C)c(CNC(=O)c2cc(-c3cccnc3)c3c(c2C)OC(C)([C@H]2CC[C@H](N(C)C)CC2)O3)c(=O)[nH]1 (relative stereo) [Example 64]
Could you list the above compounds by IC50, going from the biggest number down? Lab note: record answer as labels in requested order. III, II, I
(III: 22 nM, II: 13 nM, I: 7.3 nM)

###

Counter-ions that a name gives are not always drawn.
Notes on IC50 obtained with PRC2-EZH2 (WT EZH2) (Homo sapiens).
property.measured: IC50 (nM)

Reference set, count: 3
Cc1cc(C)c(CNC(=O)c2cc(C)c3c(c2C)OC(C)([C@H]2CC[C@H](N(C)C)CC2)O3)c(=O)[nH]1 (relative stereo) : 10
CCc1cc(C)[nH]c(=O)c1CNC(=O)c1cc(-c2cnn(C)c2)c2c(c1C)OC(C)([C@H]1CC[C@H](N(C)C)CC1)O2 (relative stereo) [Example 75, hydrochloride] : 26
C=Cc1cc(C(=O)NCc2c(C)cc(C)[nH]c2=O)c(C)c2c1OC(C)([C@H]1CC[C@H](N(C)C)CC1)O2 (relative stereo) : 22

[A] Cc1cc(C)c(CNC(=O)c2cc(Cl)c3c(c2Cl)OC(C)([C@H]2CC[C@H](N(C)C)CC2)O3)c(=O)[nH]1 (relative stereo)
[B] Cc1cc(C)c(CNC(=O)c2cc(-c3ccc(CN4CCOCC4)nc3)c3c(c2C)OC(C)([C@H]2CC[C@H](N(C)C)CC2)O3)c(=O)[nH]1 (relative stereo)
Short answer wanted: higher IC50, A or B ? Let me know the label of the one you choose. B
(B: 22 nM, A: 13 nM)

###

molecular target: PRC2-EZH1 (WT EZH1) (Homo sapiens)
pIC50: −log10 of the molar value. Structures can show the parent of a compound that is named as a salt.
property.measured: pIC50

Reference set, count: 8
Cc1cc(C)c(CNC(=O)c2cc(Cl)c3c(c2C)OC(C)([C@@H]2CC[C@@H](N(C)C)CO2)O3)c(=O)[nH]1 (stereo partly drawn) : 7.24
Cc1cc(C)c(CNC(=O)c2cc(-c3cnn(C)c3)c3c(c2C)OC(C)([C@H]2CC[C@H](N(C)C)CC2)O3)c(=O)[nH]1 (relative stereo) [Example 65, hydrochloride] : 7.64
Cc1cc(C)c(CNC(=O)c2cc(C)c3c(c2C)OC(C)([C@H]2CC[C@H](N(C)C)CC2)O3)c(=O)[nH]1 (relative stereo) : 7.66
Cc1cc(C)c(CNC(=O)c2cc(F)c3c(c2C)OC(C)([C@H]2CC[C@H](N(C)C)CC2)O3)c(=O)[nH]1 (relative stereo) : 7.14
Cc1cc(C)c(CNC(=O)c2cc(Br)c3c(c2C)O[C@@](C)(C2CCN(C)CC2)O3)c(=O)[nH]1 : 7.01
CC(=O)c1cc(C(=O)NCc2c(C)cc(C)[nH]c2=O)c(C)c2c1OC(C)([C@H]1CC[C@H](N(C)C)CC1)O2 (relative stereo) [Example 72, hydrochloride] : 7.12
CCN1CCN(c2ccc(-c3cc(C(=O)NCc4c(C)cc(C)[nH]c4=O)c(C)c4c3OC(C)([C@H]3CC[C@H](N(C)C)CC3)O4)cn2)CC1 (relative stereo) : 8.10
Cc1cc(C)c(CNC(=O)c2cc(Br)c3c(c2C)OC(C)(C2CCN(C)C2)O3)c(=O)[nH]1 (stereo not drawn) : 6.29

[1] CN[C@H]1CC[C@H](C2(C)Oc3c(Cl)cc(C(=O)NCc4c(C)cc(C)[nH]c4=O)c(C)c3O2)CC1 (relative stereo)
[2] CCCc1cc(C)[nH]c(=O)c1CNC(=O)c1cc(Br)c2c(c1C)O[C@@](C)(C1CCN(CC)CC1)O2
[3] Cc1cc(C)c(CNC(=O)c2cc(C3=CCCC3)c3c(c2C)OC(C)([C@H]2CC[C@H](N(C)C)CC2)O3)c(=O)[nH]1 (relative stereo)
Hey, quick one: sort these by pIC50, low to high? Lab note: record answer as labels in requested order. 2, 1, 3

###

Notes on IC50 obtained with UniProt Q15910.
Structures can show the parent of a compound that is named as a salt.
property.measured: IC50 (nM)

CCCc1cc(C)[nH]c(=O)c1CNC(=O)c1cc(Br)c2c(c1C)OC(C)([C@H]1CC[C@H](N(C)C)CC1)O2 (relative stereo) : 23
CCc1cc(C)[nH]c(=O)c1CNC(=O)c1cc(-c2ccc(N3CCN(CC)CC3)nc2)c2c(c1C)OC(C)([C@H]1CC[C@H](N(C)C)CC1)O2 (relative stereo) [Example 73, hydrochloride] : 22
Cc1cc(C)c(CNC(=O)c2cc(-c3ccnc(N4CCN(C)CC4)c3)c3c(c2C)OC(C)([C@H]2CC[C@H](N(C)C)CC2)O3)c(=O)[nH]1 (relative stereo) : 24
CCN1CCN(c2ccc(-c3cc(C(=O)NCc4c(C)cc(C)[nH]c4=O)c(C)c4c3OC(C)(C3CCOCC3)O4)cn2)CC1 (centres unmarked) : 23
CCN(CC)[C@H]1CC[C@H](C2(C)Oc3c(Br)cc(C(=O)NCc4c(C)cc(C)[nH]c4=O)c(C)c3O2)CC1 (relative stereo) : 18

###

target: PRC2-EZH1 (WT EZH1) (Homo sapiens)
Counter-ions that a name gives are not always drawn.
property.measured: IC50 (nM)

Reference set, count: 3
CCc1cc(C)[nH]c(=O)c1CNC(=O)c1cc(Br)c2c(c1C)OC(C)([C@H]1CC[C@H](N(C)C)CC1)O2 (relative stereo) [Example 17] : 17
CCc1cc(C)[nH]c(=O)c1CNC(=O)c1cc(-c2cnn(C)c2)c2c(c1C)OC(C)([C@H]1CC[C@H](N(C)C)CC1)O2 (relative stereo) [Example 75, hydrochloride] : 21
CCN1CCN(c2ccc(-c3cc(C(=O)NCc4c(C)cc(C)[nH]c4=O)c(C)c4c3OC(C)(C3CCOCC3)O4)cn2)CC1 (centres unmarked) [Example 56] : 68

[1] Cc1cc(C)c(CNC(=O)c2cc(-c3ccc(CN4CCOCC4)nc3)c3c(c2C)OC(C)([C@H]2CC[C@H](N(C)C)CC2)O3)c(=O)[nH]1 (relative stereo) [Example 63]
[2] Cc1cc(C)c(CNC(=O)c2cc(-c3ccnc(N4CCN(C)CC4)c3)c3c(c2C)OC(C)([C@H]2CC[C@H](N(C)C)CC2)O3)c(=O)[nH]1 (relative stereo) [Example 69]
Quick one: lower IC50, 1 or 2 ? Let me know the label of the one you choose. 1
(1: 17 nM, 2: 32 nM)

###

molecular target: PRC2-EZH2 (WT EZH2) (Homo sapiens, UniProt Q15910)
Sequence (Q15910 whole entry): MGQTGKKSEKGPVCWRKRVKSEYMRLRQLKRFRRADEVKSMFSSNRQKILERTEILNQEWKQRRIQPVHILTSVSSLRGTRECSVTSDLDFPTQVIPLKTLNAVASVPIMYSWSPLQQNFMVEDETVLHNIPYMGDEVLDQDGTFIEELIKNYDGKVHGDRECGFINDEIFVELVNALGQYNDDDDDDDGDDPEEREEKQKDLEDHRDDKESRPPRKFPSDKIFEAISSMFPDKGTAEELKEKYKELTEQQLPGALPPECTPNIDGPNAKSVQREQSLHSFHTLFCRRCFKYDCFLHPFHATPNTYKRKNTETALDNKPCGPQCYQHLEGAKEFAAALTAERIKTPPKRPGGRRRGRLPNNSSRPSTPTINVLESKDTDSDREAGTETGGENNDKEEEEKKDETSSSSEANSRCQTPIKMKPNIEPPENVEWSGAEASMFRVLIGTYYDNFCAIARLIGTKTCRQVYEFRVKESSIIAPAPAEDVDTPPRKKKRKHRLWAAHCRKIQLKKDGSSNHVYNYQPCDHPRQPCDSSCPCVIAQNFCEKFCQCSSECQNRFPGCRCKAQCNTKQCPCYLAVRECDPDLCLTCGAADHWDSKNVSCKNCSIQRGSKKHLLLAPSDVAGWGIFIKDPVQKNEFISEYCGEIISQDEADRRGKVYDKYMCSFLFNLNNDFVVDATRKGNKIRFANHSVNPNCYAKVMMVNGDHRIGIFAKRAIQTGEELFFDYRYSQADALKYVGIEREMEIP
Sequence (O75530 whole entry partner): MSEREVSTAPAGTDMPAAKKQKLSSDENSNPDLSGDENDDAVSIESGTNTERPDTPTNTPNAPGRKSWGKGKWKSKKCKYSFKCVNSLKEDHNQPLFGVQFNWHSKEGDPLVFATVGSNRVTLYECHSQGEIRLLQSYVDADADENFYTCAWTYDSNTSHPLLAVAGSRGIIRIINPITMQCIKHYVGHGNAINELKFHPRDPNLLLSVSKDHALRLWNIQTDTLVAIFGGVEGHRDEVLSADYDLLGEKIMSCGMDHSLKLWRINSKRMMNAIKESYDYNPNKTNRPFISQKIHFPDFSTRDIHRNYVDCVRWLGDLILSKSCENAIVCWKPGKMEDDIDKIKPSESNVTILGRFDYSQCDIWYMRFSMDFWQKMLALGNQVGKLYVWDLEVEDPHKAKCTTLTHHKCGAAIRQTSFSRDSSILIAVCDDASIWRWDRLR
Sequence (Q15022 whole entry partner): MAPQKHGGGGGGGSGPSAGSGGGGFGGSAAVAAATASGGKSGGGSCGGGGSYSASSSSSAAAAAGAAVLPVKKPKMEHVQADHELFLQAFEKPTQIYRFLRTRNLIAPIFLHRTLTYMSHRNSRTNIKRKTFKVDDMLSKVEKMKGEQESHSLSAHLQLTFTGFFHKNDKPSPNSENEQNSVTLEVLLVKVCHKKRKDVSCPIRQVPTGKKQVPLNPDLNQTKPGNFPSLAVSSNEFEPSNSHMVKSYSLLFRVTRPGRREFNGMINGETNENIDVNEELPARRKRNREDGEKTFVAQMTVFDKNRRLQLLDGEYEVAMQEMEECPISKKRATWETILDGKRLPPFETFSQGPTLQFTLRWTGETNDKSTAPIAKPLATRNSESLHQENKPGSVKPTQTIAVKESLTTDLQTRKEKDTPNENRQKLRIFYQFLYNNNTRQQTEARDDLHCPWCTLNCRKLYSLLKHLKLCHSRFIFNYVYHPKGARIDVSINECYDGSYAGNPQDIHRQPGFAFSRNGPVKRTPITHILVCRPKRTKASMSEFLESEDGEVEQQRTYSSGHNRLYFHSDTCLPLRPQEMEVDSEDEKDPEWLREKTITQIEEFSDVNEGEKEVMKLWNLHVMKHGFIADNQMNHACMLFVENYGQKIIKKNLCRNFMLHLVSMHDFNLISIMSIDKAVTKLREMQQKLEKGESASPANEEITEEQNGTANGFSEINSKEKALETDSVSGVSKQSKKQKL
pIC50: −log10 of the molar value.
property.measured: pIC50

[A] Cc1cc(C)c(CNC(=O)c2cc(Cl)c3c(c2C)OC(C)(CC2CCN(C)CC2)O3)c(=O)[nH]1 (stereo not drawn)
[B] CCN1CCC([C@@]2(C)Oc3c(Cl)cc(C(=O)NCc4c(C)cc(C)[nH]c4=O)c(C)c3O2)CC1
[C] Cc1cc(C)c(CNC(=O)c2ccc3c(c2C)OC(C)([C@H]2CC[C@H](N(C)C)CC2)O3)c(=O)[nH]1 (relative stereo)
Put these in order: smallest pIC50 first, largest last. Lab note: record answer as labels in requested order. B, A, C
(B: 7.74, A: 7.96, C: 8.25)

###

target: PRC2-EZH2 (WT EZH2) (Homo sapiens); construct: made in house; experiment: EZH2 methyltransferase inhibitory activity evaluation; assay type: biochemical; conditions: PRC2-EZH2, biotin-H3 peptide, 3H-SAM, 2 hours
pIC50: −log10 of the molar value. Where a name gives a salt, the structure may show the parent alone.
property.measured: pIC50

Reference set, count: 9
CCN1CCC(CC2(C)Oc3c(Br)cc(C(=O)NCc4c(C)cc(C)[nH]c4=O)c(C)c3O2)CC1 (stereo not shown) [Example 26] : 7.64
Cc1cc(C)c(CNC(=O)c2cc(Br)c3c(c2C)OC(C)(CC2CCN(C)CC2)O3)c(=O)[nH]1 (stereo not shown) [Example 25] : 7.92
Cc1cc(C)c(CNC(=O)c2cc(-c3cnn(C)c3)c3c(c2C)OC(C)([C@H]2CC[C@H](N(C)C)CC2)O3)c(=O)[nH]1 (relative stereo) [Example 65, hydrochloride] : 7.74
CCS(=O)(=O)N1CCC([C@@]2(C)Oc3c(Br)cc(C(=O)NCc4c(C)cc(C)[nH]c4=O)c(C)c3O2)CC1 [Example 11] : 8.04
C#Cc1cc(C(=O)NCc2c(C)cc(C)[nH]c2=O)c(C)c2c1OC(C)([C@H]1CC[C@H](N(C)C)CC1)O2 (relative stereo) [Example 67] : 7.72
Cc1cc(C)c(CNC(=O)c2cc(Br)c3c(c2C)OC(C)(C[C@H]2CC[C@@H](N(C)C)CC2)O3)c(=O)[nH]1 (relative stereo) [Example 27] : 7.66
CCCN1CCC([C@@]2(C)Oc3c(Br)cc(C(=O)NCc4c(C)cc(C)[nH]c4=O)c(C)c3O2)CC1 [Example 9] : 7.96
CCN1CC2(CC(C3(C)Oc4c(Br)cc(C(=O)NCc5c(C)cc(C)[nH]c5=O)c(C)c4O3)C2)C1 (stereo not shown) [Example 5] : 7.82
Cc1cc(C)c(CNC(=O)c2cc(-c3cccnc3)c3c(c2C)OC(C)([C@H]2CC[C@H](N(C)C)CC2)O3)c(=O)[nH]1 (relative stereo) [Example 64] : 7.85

[a] Cc1cc(C)c(CNC(=O)c2cc(Br)c3c(c2C)OC(C)([C@@H]2CC[C@@H](N(C)C)CO2)O3)c(=O)[nH]1 (stereo partly shown) [Example 22]
[b] CCN1CCN(c2ccc(-c3cc(C(=O)NCc4c(C)cc(C)[nH]c4=O)c(C)c4c3OC(C)(C3CCOC3)O4)cn2)CC1 (stereo not shown) [Example 57]
[c] Cc1cc(C)c(CNC(=O)c2cc(-c3ccccc3)c3c(c2C)OC(C)([C@H]2CC[C@H](N(C)C)CC2)O3)c(=O)[nH]1 (relative stereo) [Example 59]
[d] CCN1CCC([C@@]2(C)Oc3c(Br)cc(C(=O)NCc4c(C)cc(C)[nH]c4=O)c(C)c3O2)CC1 [Example 7]
Sequence the entries by pIC50, beginning with the highest number. Lab note: record answer as labels in requested order. d, c, a, b
(d: 8.44, c: 8.06, a: 7.85, b: 7.44)
